assay: Human plasma stability; assay type: in vitro ADME; conditions: Protocol No. 2; plasma, 5 μM, 37° C.
Counter-ions that a name gives are not always drawn.
# Lookup of reported % Remaining @ 2 h keyed by entry
readout.type: % Remaining @ 2 h (%)

[
  {
    "compound": "Cc1cc2[nH]cc(C(=O)OCC34CCN(CC3)CC4)c2cc1F [Compound 72, hydrochloride]",
    "readout.type": "% Remaining @ 2 h",
    "scale.unit": "%",
    "test.result": 70.78
  },
  {
    "compound": "Cc1cc2[nH]cc(C(=O)OCC34CCN(CC3)CC4)c2cc1Cl.Cl",
    "readout.type": "% Remaining @ 2 h",
    "scale.unit": "%",
    "test.result": 71.77
  },
  {
    "compound": "Cl.O=C(OCC12CCN(CC1)CC2)c1c[nH]c2cc(Cl)cc(Cl)c12",
    "readout.type": "% Remaining @ 2 h",
    "scale.unit": "%",
    "test.result": 72.03
  }
]
